- protocol-description: Half-life in male Sprague-Dawley rat at 10 mg/kg, iv measured after 24 hrs by LC-MS/MS analysis
- Type: ADME, organism-based
- experimental-context: male, Sprague-Dawley, in vivo
readout-label: half-life (h)
# output: bare number, implied unit h

Which half-life value belongs to O=C(O)CCC(=O)N1N=C(c2ccc[nH]2)CC1c1cnc2ccccc2c1 (stereo unspecified) ? 1.5

---

- protocol-description: Tmax in male Sprague-Dawley rat at 10 mg/kg, iv measured after 24 hrs by LC-MS/MS analysis
- Format: ADME, organism-based
- experimental-context: male, Sprague-Dawley, in vivo, read-out: Tmax (converted)
readout-label: Tmax (min)
# output: bare number, implied unit min

Which Tmax value belongs to O=C(O)CCC(=O)N1N=C(c2ccc[nH]2)CC1c1cnc2ccccc2c1 (stereo unspecified) ? 28

---

- measurement-target: Cytochrome P450 1A2 (Homo sapiens)
- Sequence (P05177 whole entry): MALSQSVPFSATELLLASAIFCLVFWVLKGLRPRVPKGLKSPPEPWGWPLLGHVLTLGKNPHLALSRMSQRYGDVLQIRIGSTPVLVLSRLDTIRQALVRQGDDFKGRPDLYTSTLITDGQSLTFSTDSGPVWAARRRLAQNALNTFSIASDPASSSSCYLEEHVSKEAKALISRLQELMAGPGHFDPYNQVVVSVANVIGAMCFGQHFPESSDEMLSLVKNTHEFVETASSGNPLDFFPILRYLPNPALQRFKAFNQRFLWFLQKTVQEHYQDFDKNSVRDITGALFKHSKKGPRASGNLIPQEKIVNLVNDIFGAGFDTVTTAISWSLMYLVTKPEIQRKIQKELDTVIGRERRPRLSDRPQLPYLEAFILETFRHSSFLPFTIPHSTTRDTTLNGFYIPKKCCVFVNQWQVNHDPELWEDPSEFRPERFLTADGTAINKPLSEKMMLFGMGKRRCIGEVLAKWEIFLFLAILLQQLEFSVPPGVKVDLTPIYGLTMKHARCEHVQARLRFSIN
readout-label: IC50

Which IC50 value belongs to O=C(O)CCC(=O)N1N=C(c2ccc[nH]2)CC1c1cnc2ccccc2c1 (stereo unspecified) ? > 50 µM

---

- protocol-description: Cmax in male Sprague-Dawley rat at 10 mg/kg, iv measured after 24 hrs by LC-MS/MS analysis
- Type: ADME, organism-based
- experimental-context: male, Sprague-Dawley, in vivo, read-out: Cmax
readout-label: Cmax (ng/mL)
# output: bare number, implied unit ng/mL

Which Cmax value belongs to O=C(O)CCC(=O)N1N=C(c2ccc[nH]2)CC1c1cnc2ccccc2c1 (stereo unspecified) ? 1410

---

- measurement-target: Voltage-gated inwardly rectifying potassium channel KCNH2 (Homo sapiens, UniProt Q12809)
- Sequence (Q12809 whole entry): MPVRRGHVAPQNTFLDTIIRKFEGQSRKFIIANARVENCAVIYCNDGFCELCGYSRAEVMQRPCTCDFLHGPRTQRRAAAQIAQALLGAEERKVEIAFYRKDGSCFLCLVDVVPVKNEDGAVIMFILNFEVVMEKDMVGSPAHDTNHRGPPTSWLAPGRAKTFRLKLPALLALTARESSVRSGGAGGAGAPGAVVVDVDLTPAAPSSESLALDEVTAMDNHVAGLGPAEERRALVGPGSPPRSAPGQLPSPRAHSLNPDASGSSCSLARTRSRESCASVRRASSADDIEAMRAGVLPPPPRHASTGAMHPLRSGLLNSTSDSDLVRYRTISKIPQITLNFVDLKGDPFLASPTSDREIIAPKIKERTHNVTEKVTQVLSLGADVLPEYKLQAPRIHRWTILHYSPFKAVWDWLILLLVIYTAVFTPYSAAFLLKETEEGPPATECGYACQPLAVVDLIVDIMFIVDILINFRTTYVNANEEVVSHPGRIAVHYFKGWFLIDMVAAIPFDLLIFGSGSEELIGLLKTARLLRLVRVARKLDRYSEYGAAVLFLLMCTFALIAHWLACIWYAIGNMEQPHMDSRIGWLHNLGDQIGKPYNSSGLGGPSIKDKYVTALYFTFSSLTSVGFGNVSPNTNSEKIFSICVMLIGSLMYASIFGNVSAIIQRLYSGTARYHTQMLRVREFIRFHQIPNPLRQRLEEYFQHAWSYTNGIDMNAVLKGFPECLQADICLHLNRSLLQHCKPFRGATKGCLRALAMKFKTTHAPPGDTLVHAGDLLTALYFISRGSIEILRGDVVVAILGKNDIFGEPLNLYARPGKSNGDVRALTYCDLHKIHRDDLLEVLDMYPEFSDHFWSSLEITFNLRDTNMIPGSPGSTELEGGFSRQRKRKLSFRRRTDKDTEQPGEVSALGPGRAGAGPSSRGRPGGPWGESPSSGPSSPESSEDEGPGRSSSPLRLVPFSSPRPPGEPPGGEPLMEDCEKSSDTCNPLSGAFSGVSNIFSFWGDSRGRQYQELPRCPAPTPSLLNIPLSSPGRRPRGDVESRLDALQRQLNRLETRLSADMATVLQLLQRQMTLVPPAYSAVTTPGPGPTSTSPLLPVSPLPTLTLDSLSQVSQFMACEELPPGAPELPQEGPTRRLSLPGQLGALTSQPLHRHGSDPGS
- protocol-description: Inhibition of human ERG by PatchXpress analysis
- Type: toxicity
readout-label: IC50

Which IC50 value belongs to O=C(O)CCC(=O)N1N=C(c2ccc[nH]2)CC1c1cnc2ccccc2c1 (stereo unspecified) ? > 50 µM

---

- measurement-target: Cytochrome P450 3A4 (Homo sapiens)
- Sequence (P08684 whole entry): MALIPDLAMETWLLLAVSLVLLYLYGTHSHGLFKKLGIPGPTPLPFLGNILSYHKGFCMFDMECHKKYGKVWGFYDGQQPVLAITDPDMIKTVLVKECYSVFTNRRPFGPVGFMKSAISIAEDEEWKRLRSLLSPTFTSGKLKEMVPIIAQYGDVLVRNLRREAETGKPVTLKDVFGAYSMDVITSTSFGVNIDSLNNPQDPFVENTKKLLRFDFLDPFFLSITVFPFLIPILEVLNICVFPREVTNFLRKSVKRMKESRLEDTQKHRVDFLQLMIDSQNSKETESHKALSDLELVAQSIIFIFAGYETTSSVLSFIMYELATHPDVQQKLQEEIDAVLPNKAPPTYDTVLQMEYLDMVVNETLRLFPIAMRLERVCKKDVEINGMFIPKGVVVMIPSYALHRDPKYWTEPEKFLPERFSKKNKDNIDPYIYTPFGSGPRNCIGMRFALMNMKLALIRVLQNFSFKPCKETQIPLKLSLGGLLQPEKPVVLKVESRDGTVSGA
pIC50: −log10 of the molar value.
readout-label: pIC50

Request: pIC50, test system Cytochrome P450 3A4 (Homo sapiens), entry O=C(O)CCC(=O)N1N=C(c2ccc[nH]2)CC1c1cnc2ccccc2c1 (stereo unspecified) < 4.30

Source of measurements: ChEMBL document CHEMBL6127087
